read-out: Cytochrome P450 (CYP2B6), CYP2B6 (gene 1555); test: LTEA_HepaRG_CYP2B6: Life Technologies and Expression Analysis (LTEA) Assay for Cytochrome P450 (CYP2B6) using HepaRG (AID 2283481); conditions: mRNA level, 48 h; actives raise or lower the signal
The source made the active and inactive calls. How the source made its calls: active means hit-call score of the fitted dose curve at least 0.9, where 1 is the maximum; inactive means score below 0.9.
Observation type: AC50

Recorded AC50 of `CCOP(=S)(OCC)Oc1nc(Cl)n(C(C)C)n1` , please.
1.78 µM (active)

For `C=C(C)CN(CC)c1c([N+](=O)[O-])cc(C(F)(F)F)cc1[N+](=O)[O-]` , what is its reported AC50?
23.6 µM (active)

For the compound shown here, `Cc1ccc(N=CN(C)C=Nc2ccc(C)cc2C)c(C)c1` , give the reported AC50.
30.3 µM (active)

Which value of AC50 has been reported for `CCSC(=O)N1CCCCCC1` in the records?
2.93 µM (active)

Entry `Nc1cnn(-c2ccccc2)c(=O)c1Cl` has what AC50?
17.1 µM (active)

What value of measured AC50 is listed for `CC(C)N1C(=O)N(c2ccccc2)CSC1=NC(C)(C)C` ?
89.3 µM (active)

What does the data say about its AC50? Entry: `CO/N=C(/C1=NOCCO1)c1ccccc1Oc1ncnc(Oc2ccccc2Cl)c1F`
21.1 µM (active)

Any idea what its AC50 is? The compound is `CNC(=O)Oc1cccc2ccccc12`
25.6 µM (active)

# query: AC50 of entry CC(C)=CC1C(C(=O)OCc2coc(Cc3ccccc3)c2)C1(C)C (configuration not stated)
20.1 µM (active)

I would be grateful if you could share the reported AC50 for `CCCCOCN(C(=O)CCl)c1c(CC)cccc1CC` .
40 µM (active)

If you can, please state the reported AC50 value of `CC(C)N1C(=O)c2ccccc2NS1(=O)=O` .
50 µM (active)

GET /values?readout=AC50&item= `CC(C)Oc1cccc(NC(=O)c2ccccc2C(F)(F)F)c1`
33 µM (active)

Where do these numbers come from? They come from PubChem BioAssay (EPA / NIEHS).
